molecular target: IKBKB (human) (UniProt O14920); test: radiometric filter-binding kinase assay; details: compound 10.0 µM
Sequence (O14920 whole entry, looked up): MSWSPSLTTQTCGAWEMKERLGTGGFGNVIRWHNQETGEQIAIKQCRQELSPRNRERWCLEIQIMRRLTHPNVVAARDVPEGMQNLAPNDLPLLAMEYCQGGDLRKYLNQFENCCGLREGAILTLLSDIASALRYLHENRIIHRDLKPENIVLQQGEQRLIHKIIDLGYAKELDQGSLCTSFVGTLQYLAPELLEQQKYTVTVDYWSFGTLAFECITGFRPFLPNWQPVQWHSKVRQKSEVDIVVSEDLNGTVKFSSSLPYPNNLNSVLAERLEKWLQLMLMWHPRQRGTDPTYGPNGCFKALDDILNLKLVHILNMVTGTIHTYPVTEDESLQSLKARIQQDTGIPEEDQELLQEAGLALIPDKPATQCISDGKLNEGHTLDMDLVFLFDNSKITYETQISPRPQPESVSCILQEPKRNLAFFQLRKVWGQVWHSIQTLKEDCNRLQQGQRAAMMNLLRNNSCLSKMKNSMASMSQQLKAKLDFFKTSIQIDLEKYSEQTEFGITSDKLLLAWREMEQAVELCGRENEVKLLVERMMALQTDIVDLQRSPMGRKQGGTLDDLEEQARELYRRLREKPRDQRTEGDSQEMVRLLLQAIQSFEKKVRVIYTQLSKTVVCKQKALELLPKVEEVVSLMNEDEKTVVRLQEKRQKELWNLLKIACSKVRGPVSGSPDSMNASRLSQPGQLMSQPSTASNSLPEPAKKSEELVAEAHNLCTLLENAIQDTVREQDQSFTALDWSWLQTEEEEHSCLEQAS
Quantity name: residual activity (%)
Use % as the unit, but write only the number.

> print(dat)
                                chem.smiles                   target.system      quantity.name  number
1  CCCCCc1ccc(/C=C/[C@H](O)[C@@H](CO)NC)cc1  IKBKB (human) (UniProt O14920)  residual activity     100
2  Cc1ccc(-c2ccc3c(ccc4sc5c(c43)NC[C@@H](C)NC5=O)n2)cn1  IKBKB (human) (UniProt O14920)  residual activity     101
3  NC(=O)c1cc2c(-c3cccc(-c4ccccc4)c3)cnc(N)c2s1  IKBKB (human) (UniProt O14920)  residual activity      65

The reported value for CCc1cncnc1N1CCN(Cc2nc3cc(C(F)(F)F)ccc3[nH]2)CC1 in terms of residual activity is 102

The reported value for NC1(c2ccc(-c3nc4ccn5c(=O)[nH]nc5c4cc3-c3ccccc3)cc2)CCC1 in terms of residual activity is 89

###

residual activity values for the compounds below.
biological target: UniProtKB Q9BUB5; assay: radiometric filter-binding kinase assay; conditions: compound 0.01 µM
Sequence (Q9BUB5 whole entry, looked up): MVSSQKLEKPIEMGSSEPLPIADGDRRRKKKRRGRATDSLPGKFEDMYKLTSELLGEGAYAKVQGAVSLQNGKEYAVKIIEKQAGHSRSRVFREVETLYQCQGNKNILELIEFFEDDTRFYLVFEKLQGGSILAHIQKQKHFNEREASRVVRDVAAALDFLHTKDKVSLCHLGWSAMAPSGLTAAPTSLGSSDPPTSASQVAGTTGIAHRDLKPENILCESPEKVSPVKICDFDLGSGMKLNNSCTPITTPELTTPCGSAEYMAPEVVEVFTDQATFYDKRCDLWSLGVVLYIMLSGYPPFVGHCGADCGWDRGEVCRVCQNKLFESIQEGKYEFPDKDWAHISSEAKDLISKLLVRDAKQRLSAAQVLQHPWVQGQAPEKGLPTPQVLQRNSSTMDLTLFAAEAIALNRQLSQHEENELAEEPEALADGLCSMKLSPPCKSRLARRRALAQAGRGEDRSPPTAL
Use % as the unit, but write only the number.

> print(dat)
                                   compound  unit.symbol  number
1  COc1ccc(N(C(=O)Nc2c(C)cccc2C)c2cc(Nc3ccc(N4CCN(C)CC4)cc3)ncn2)c(OC)c1            %     109
2  CNC(=O)C1[C@H]2O[C@@](C)([C@@H]1N)n1c3ccccc3c3c4c(c5c6ccccc6n2c5c31)C(=O)NC4 (stereo partly specified)            %      61
3  C/C(=C1/C(=O)Nc2ccc(NC(N)=O)cc21)c1ccc[nH]1            %      87
4  CNc1nc(-c2ccc3c(N)n[nH]c3c2)cc(N2C[C@@H](C(=O)NC3CCCCC3)CC[C@H]2C)n1            %     106

The reported value for O=C(Nc1nc2cc(C(F)(F)F)cc(NC3CC3)n2n1)c1cccnc1 in terms of residual activity is 94

The reported value for COc1cc(O)c2c(c1)[C@H]1OC1C[C@H](O)[C@H](O)C(=O)/C=C\C[C@H](C)OC2=O (stereo partly specified) in terms of residual activity is 100

###

target: MAPK14 (human); assay: radiometric filter-binding kinase assay; conditions: compound 1.0 µM
Quantity name: residual activity (%)
Use % as the unit, but write only the number.

Field: example entries. Status: answers known.
> print(dat)
                                chem.smiles  unit.symbol  number
1   Cc1nc(-c2ccc(OCC(C)C)c(C#N)c2)sc1C(=O)O            %     105
2  O=C(O)c1cc(N=Nc2ccc(S(=O)(=O)Nc3ccccn3)cc2)ccc1O            %     105
3  Cc1ccc(Sc2cnc(Nc3cccc(Br)n3)s2)cc1C(=O)N1CCN(C(=O)CN)CC1            %      89

The record that follows has no residual activity shown yet.
The reported value for CN(C)C/C=C/C(=O)Nc1cccc(C(=O)Nc2ccc(Nc3nccc(-c4cccnc4)n3)cc2)c1 in terms of residual activity is 113
